- target: UniProt Q01727
- Sequence (Q01727 whole entry, looked up): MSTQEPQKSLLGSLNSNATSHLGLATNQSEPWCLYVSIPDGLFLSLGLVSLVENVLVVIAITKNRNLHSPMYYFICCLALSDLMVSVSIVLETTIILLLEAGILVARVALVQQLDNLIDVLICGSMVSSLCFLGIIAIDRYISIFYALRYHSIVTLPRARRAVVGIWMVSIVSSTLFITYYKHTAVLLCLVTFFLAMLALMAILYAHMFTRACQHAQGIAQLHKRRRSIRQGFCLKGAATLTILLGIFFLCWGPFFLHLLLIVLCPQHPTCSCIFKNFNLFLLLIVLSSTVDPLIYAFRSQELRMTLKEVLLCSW
- assay.remarks: Agonist activity at mouse MC1R expressed in HEK293 cells at 100 uM incubated for 2 hrs by AlphaScreen cAMP assay relative to NDP-MSH
- Assay type: functional, cell-based
Square brackets hold non-standard residues; d marks the D form. Peptide text beside a SMILES is read from it. hPhe = N[C@@H](CCc1ccccc1)C(=O)O; Nle = CCCC[C@H](N)C(=O)O; Dap = NC[C@H](N)C(=O)O
quantity.name: Activity

* CCCC[C@@H]1NC(=O)[C@H](C)NC(=O)[C@H](CC(N)=O)NC(=O)[C@H](CCc2ccccc2)NC(=O)[C@H](Cc2ccccc2)NC(=O)[C@H](CCCNC(=N)N)NC(=O)[C@@H]2CCCN2C(=O)[C@H]2CCCN2C1=O | < 20%
* N=C(N)NCCC[C@@H]1NC(=O)[C@@H]2CCCN2C(=O)[C@H]2CCCN2C(=O)[C@H](Cc2ccccc2)NC(=O)[C@H](CO)NC(=O)[C@H](CC(N)=O)NC(=O)[C@H](CCc2ccccc2)NC(=O)[C@H](Cc2ccccc2)NC1=O | 40%
* CCCC[C@@H]1NC(=O)[C@H](C)NC(=O)[C@H](CCCNC(=N)N)NC(=O)[C@H](CCc2ccccc2)NC(=O)[C@H](Cc2ccccc2)NC(=O)[C@H](CCCNC(=N)N)NC(=O)[C@@H]2CCCN2C(=O)[C@H]2CCCN2C1=O (cyclo(RF[hPhe]RA[Nle][dP]P)) | < 20%
* N=C(N)NCCC[C@@H]1NC(=O)[C@H](Cc2ccccc2)NC(=O)[C@H](Cc2ccccc2)NC(=O)[C@H](CCCNC(=N)N)NC(=O)[C@@H]2CCCN2C(=O)[C@H]2CCCN2C(=O)[C@H](Cc2ccccc2)NC(=O)[C@H](CO)NC1=O | < 20%
* CCCC[C@@H]1NC(=O)[C@H](CO)NC(=O)[C@H](CCCNC(=N)N)NC(=O)[C@H](Cc2ccccc2)NC(=O)[C@H](Cc2ccccc2)NC(=O)[C@H](CCCNC(=N)N)NC(=O)[C@@H]2CCCN2C(=O)[C@H]2CCCN2C1=O (cyclo(RFFRS[Nle][dP]P)) | < 20%
* CCCC[C@@H]1NC(=O)[C@H](CO)NC(=O)[C@H](CC(N)=O)NC(=O)[C@H](CCc2ccccc2)NC(=O)[C@H](Cc2ccccc2)NC(=O)[C@H](CCCNC(=N)N)NC(=O)[C@@H]2CCCN2C(=O)[C@H]2CCCN2C1=O (cyclo(RF[hPhe]NS[Nle][dP]P)) | < 20%
* N=C(N)NCCC[C@@H]1NC(=O)[C@@H]2CCCN2C(=O)[C@H]2CCCN2C(=O)[C@H](Cc2ccccc2)NC(=O)[C@H](CO)NC(=O)[C@H](CN)NC(=O)[C@H](CCc2ccccc2)NC(=O)[C@H](Cc2ccccc2)NC1=O | 40%
* CCCC[C@@H]1NC(=O)[C@H](CO)NC(=O)[C@H](CN)NC(=O)[C@H](CCc2ccccc2)NC(=O)[C@H](Cc2ccccc2)NC(=O)[C@H](CCCNC(=N)N)NC(=O)[C@@H]2CCCN2C(=O)[C@H]2CCCN2C1=O (cyclo(RF[hPhe][Dap]S[Nle][dP]P)) | < 20%
* N=C(N)NCCC[C@@H]1NC(=O)[C@H](CCc2ccccc2)NC(=O)[C@H](Cc2ccccc2)NC(=O)[C@H](CCCNC(=N)N)NC(=O)[C@@H]2CCCN2C(=O)[C@H]2CCCN2C(=O)[C@H](Cc2ccccc2)NC(=O)[C@H](CO)NC1=O (cyclo(RF[hPhe]RSF[dP]P)) | 30%

----------
# Kb per entry
- target: Melanocortin receptor 4 (Mus musculus, UniProt P56450)
- Sequence (P56450 whole entry): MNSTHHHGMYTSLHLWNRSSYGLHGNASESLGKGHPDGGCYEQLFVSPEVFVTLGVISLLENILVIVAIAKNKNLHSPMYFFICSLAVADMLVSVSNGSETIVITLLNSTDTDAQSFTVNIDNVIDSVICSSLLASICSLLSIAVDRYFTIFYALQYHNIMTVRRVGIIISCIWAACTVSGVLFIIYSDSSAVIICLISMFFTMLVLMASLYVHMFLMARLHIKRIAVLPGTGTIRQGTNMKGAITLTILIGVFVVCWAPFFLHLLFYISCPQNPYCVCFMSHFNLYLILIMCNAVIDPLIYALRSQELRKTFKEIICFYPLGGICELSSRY
- assay.remarks: Antagonist activity at mouse MC4R expressed in HEK293 cells assessed as reduction in NDP-MSH-induced response incubated for 2 hrs by AlphaScreen cAMP assay based Schild analysis
- Type: functional, cell-based
- reported.conditions: read-out: pA2 (converted)
Square brackets hold non-standard residues; d marks the D form. Peptide text beside a SMILES is read from it. hPhe = N[C@@H](CCc1ccccc1)C(=O)O; Nle = CCCC[C@H](N)C(=O)O; Dap = NC[C@H](N)C(=O)O
quantity.name: Kb (nM)

* C[C@@H]1NC(=O)[C@H](CN)NC(=O)[C@H](CCc2ccccc2)NC(=O)[C@H](Cc2ccccc2)NC(=O)[C@H](CCCNC(=N)N)NC(=O)[C@@H]2CCCN2C(=O)[C@H]2CCCN2C(=O)[C@H](Cc2ccccc2)NC1=O | 0.794
* CCCC[C@@H]1NC(=O)[C@H](CO)NC(=O)[C@H](CC(N)=O)NC(=O)[C@H](CCc2ccccc2)NC(=O)[C@H](Cc2ccccc2)NC(=O)[C@H](CCCNC(=N)N)NC(=O)[C@@H]2CCCN2C(=O)[C@H]2CCCN2C1=O (cyclo(RF[hPhe]NS[Nle][dP]P)) | 0.631
* N=C(N)NCCC[C@@H]1NC(=O)[C@@H]2CCCN2C(=O)[C@H]2CCCN2C(=O)[C@H](Cc2ccccc2)NC(=O)[C@H](CO)NC(=O)[C@H](CN)NC(=O)[C@H](Cc2ccccc2)NC(=O)[C@H](Cc2ccccc2)NC1=O | 0.794
* N=C(N)NCCC[C@@H]1NC(=O)[C@@H]2CCCN2C(=O)[C@H]2CCCN2C(=O)[C@H](Cc2ccccc2)NC(=O)[C@H](CO)NC(=O)[C@H](CC(N)=O)NC(=O)[C@H](CCc2ccccc2)NC(=O)[C@H](Cc2ccccc2)NC1=O | 2.51
* CCCC[C@@H]1NC(=O)[C@H](CO)NC(=O)[C@H](CN)NC(=O)[C@H](CCc2ccccc2)NC(=O)[C@H](Cc2ccccc2)NC(=O)[C@H](CCCNC(=N)N)NC(=O)[C@@H]2CCCN2C(=O)[C@H]2CCCN2C1=O (cyclo(RF[hPhe][Dap]S[Nle][dP]P)) | 0.316
* N=C(N)NCCC[C@@H]1NC(=O)[C@H](Cc2ccccc2)NC(=O)[C@H](Cc2ccccc2)NC(=O)[C@H](CCCNC(=N)N)NC(=O)[C@@H]2CCCN2C(=O)[C@H]2CCCN2C(=O)[C@H](Cc2ccccc2)NC(=O)[C@H](CO)NC1=O | 1
* CCCC[C@@H]1NC(=O)[C@H](CO)NC(=O)[C@H](CC(N)=O)NC(=O)[C@H](Cc2ccccc2)NC(=O)[C@H](Cc2ccccc2)NC(=O)[C@H](CCCNC(=N)N)NC(=O)[C@@H]2CCCN2C(=O)[C@H]2CCCN2C1=O (cyclo(RFFNS[Nle][dP]P)) | 3.16
* N=C(N)NCCC[C@@H]1NC(=O)[C@H](CCc2ccccc2)NC(=O)[C@H](Cc2ccccc2)NC(=O)[C@H](CCCNC(=N)N)NC(=O)[C@@H]2CCCN2C(=O)[C@H]2CCCN2C(=O)[C@H](Cc2ccccc2)NC(=O)[C@H](CO)NC1=O (cyclo(RF[hPhe]RSF[dP]P)) | 1.58
* CCCC[C@@H]1NC(=O)[C@H](CO)NC(=O)[C@H](CCCNC(=N)N)NC(=O)[C@H](CCc2ccccc2)NC(=O)[C@H](Cc2ccccc2)NC(=O)[C@H](CCCNC(=N)N)NC(=O)[C@@H]2CCCN2C(=O)[C@H]2CCCN2C1=O (cyclo(RF[hPhe]RS[Nle][dP]P)) | 0.316
* CCCC[C@@H]1NC(=O)[C@H](C)NC(=O)[C@H](CC(N)=O)NC(=O)[C@H](CCc2ccccc2)NC(=O)[C@H](Cc2ccccc2)NC(=O)[C@H](CCCNC(=N)N)NC(=O)[C@@H]2CCCN2C(=O)[C@H]2CCCN2C1=O | 2.51
* C[C@@H]1NC(=O)[C@H](CCCNC(=N)N)NC(=O)[C@H](CCc2ccccc2)NC(=O)[C@H](Cc2ccccc2)NC(=O)[C@H](CCCNC(=N)N)NC(=O)[C@@H]2CCCN2C(=O)[C@H]2CCCN2C(=O)[C@H](Cc2ccccc2)NC1=O (cyclo(RF[hPhe]RAF[dP]P)) | 1.26
* N=C(N)NCCC[C@@H]1NC(=O)[C@@H]2CCCN2C(=O)[C@H]2CCCN2C(=O)[C@H](Cc2ccccc2)NC(=O)[C@H](CO)NC(=O)[C@H](CN)NC(=O)[C@H](CCc2ccccc2)NC(=O)[C@H](Cc2ccccc2)NC1=O | 0.631
* CCCC[C@@H]1NC(=O)[C@H](C)NC(=O)[C@H](CCCNC(=N)N)NC(=O)[C@H](Cc2ccccc2)NC(=O)[C@H](Cc2ccccc2)NC(=O)[C@H](CCCNC(=N)N)NC(=O)[C@@H]2CCCN2C(=O)[C@H]2CCCN2C1=O (cyclo(RFFRA[Nle][dP]P)) | 0.794
* CCCC[C@@H]1NC(=O)[C@H](C)NC(=O)[C@H](CN)NC(=O)[C@H](Cc2ccccc2)NC(=O)[C@H](Cc2ccccc2)NC(=O)[C@H](CCCNC(=N)N)NC(=O)[C@@H]2CCCN2C(=O)[C@H]2CCCN2C1=O | 1
* CCCC[C@@H]1NC(=O)[C@H](C)NC(=O)[C@H](CN)NC(=O)[C@H](CCc2ccccc2)NC(=O)[C@H](Cc2ccccc2)NC(=O)[C@H](CCCNC(=N)N)NC(=O)[C@@H]2CCCN2C(=O)[C@H]2CCCN2C1=O (cyclo(RF[hPhe][Dap]A[Nle][dP]P)) | 0.794
* CCCC[C@@H]1NC(=O)[C@H](C)NC(=O)[C@H](CCCNC(=N)N)NC(=O)[C@H](CCc2ccccc2)NC(=O)[C@H](Cc2ccccc2)NC(=O)[C@H](CCCNC(=N)N)NC(=O)[C@@H]2CCCN2C(=O)[C@H]2CCCN2C1=O (cyclo(RF[hPhe]RA[Nle][dP]P)) | 1.58
